// Ratio CC50/EC50 lookup, one value per entry
- assay: Selectivity index, ratio of CC50 for MDBK cells to EC50 for antiviral activity against BVDV1 Nose
Give the figure by itself; no unit, no explanation.

CC[Si](CC)(c1ccc(O)cc1)c1ccc(OCC(=O)C(C)(C)C)cc1
5.85
CCC(CC)(c1ccc(NCC(O)C(C)(C)C)c(C)c1)c1ccc(OC[C@@H](O)CO)c(C)c1 (stereo not given in full)
1.72
CCN(CC)C(=O)Oc1ccc(C(CC)(CC)c2ccc(NC(C)=O)c(C)c2)cc1C
5
CCC(CC)(c1ccc(NCC(=O)C(C)(C)C)c(C)c1)c1ccc(OCC(=O)C(C)(C)C)c(C)c1
9.21

Exercise: Give Ratio CC50/EC50 for the following compound: CCC(CC)(c1ccc(O)cc1)c1ccc(O)cc1
Solution: 3.9

====

- assay: Cytotoxicity in MDBK cells assessed as reduction in cell viability
- Assay type: cell-based, Bos taurus
- conditionSummary: cattle
CC50 values by entry
Output spec: scalar in µM, unitless text.

Answered cases to consult:
CCC(CC)(c1ccc(NCC(=O)C(C)(C)C)c(C)c1)c1ccc(OCC(=O)C(C)(C)C)c(C)c1
82
CCC(CC)(c1ccc(O)cc1)c1ccc(O)cc1
39
CCC(CC)(c1ccc(NCC(O)C(C)(C)C)c(C)c1)c1ccc(OC[C@@H](O)CO)c(C)c1 (some centres undefined)
43

Now let's try a different one.
Exercise: For Nc1ccc(C2(c3ccc(O)cc3)CCCCC2)cc1 , write its CC50.
Solution: 42

====

- assay: Cytotoxicity in MDBK cells assessed as reduction in cell viability
- Type: cell-based, Bos taurus
- conditionSummary: cattle
property: CC50

Exercise: Note down CC50 recorded for CCC(CC)(c1ccc(O)c(C)c1)c1ccc(OCC(=O)C(C)(C)C)c(C)c1
Solution: 5.23 µM

Exercise: Hello, please tell me recorded CC50 for this one: CC[Si](CC)(c1ccc(O)cc1)c1ccc(OCC(=O)C(C)(C)C)cc1
Solution: 46.8 µM

Exercise: Answer with the recorded CC50 of CC[Si](CC)(c1ccc(OCC(=O)C(C)(C)C)c(C)c1)c1ccc(OCC(=O)C(C)(C)C)c(C)c1 only.
Solution: > 100 µM

Exercise: Respond only with CC50 recorded for CCC(CC)(c1ccc(OCC(=O)C(C)(C)C)c(C)c1)c1ccc(N(CC(=O)C(C)(C)C)Cc2ccccc2)c(C)c1
Solution: > 100 µM

Exercise: Give recorded CC50. CCN(CC)C(=O)Oc1ccc(C(CC)(CC)c2ccc(NC(C)=O)c(C)c2)cc1C
Solution: 50 µM

====

- Tested on: Bovine viral diarrhea virus 1
- assay: Antiviral activity against BVDV1 Nose infected in MDBK cells assessed as inhibition of virus replication-induced cell destruction
- Type: functional, organism-based
- conditionSummary: Bovine viral diarrhea virus isolates and strains
Hi! Just check whether EC50 is below 10 µM. Below gives TRUE, equal or above gives FALSE.

The examples below pair each entry with its known result.
Cc1cc(C2(c3ccc(OCC(=O)C(C)(C)C)c(C)c3)CCCC2)ccc1OCC(=O)C(C)(C)C
FALSE
CC[Si](CC)(c1ccc(O)cc1)c1ccc(OCC(=O)C(C)(C)C)cc1
TRUE
CC[Si](CC)(c1ccc(OCC(=O)C(C)(C)C)cc1)c1ccc(OCC(=O)C(C)(C)C)cc1
TRUE
CCC(CC)(c1ccc(NCC(=O)C(C)(C)C)c(C)c1)c1ccc(OCC(=O)C(C)(C)C)c(C)c1
TRUE

Exercise: Determine if Nc1ccc(C2(c3ccc(O)cc3)CCCCC2)cc1 shows EC50 strictly lower than 10 µM.
Solution: FALSE

Exercise: In the record for CCC(CC)(c1ccc(O)c(C)c1)c1ccc(OCC(=O)C(C)(C)C)c(C)c1 , is EC50 less than 10 µM?
Solution: TRUE

Exercise: Hello, I'm reviewing records and need to know if EC50 of CC[Si](CC)(c1ccc(OCC(=O)C(C)(C)C)c(C)c1)c1ccc(OCC(=O)C(C)(C)C)c(C)c1 is below 10 µM. Could you check?
Solution: TRUE

Exercise: Lab note: EC50 threshold 10 µM. Does this compound come in strictly under it? CCC(CC)(c1ccc(NCC(O)C(C)(C)C)c(C)c1)c1ccc(OC[C@@H](O)CO)c(C)c1 (some centres undefined)
Solution: FALSE

Exercise: Is it true that EC50 reported for Cc1cc(C(C)(C)c2ccc(OCC(=O)C(C)(C)C)c(C)c2)ccc1OCC(=O)C(C)(C)C is less than 10 µM?
Solution: FALSE
